Overview of reported IC50 across a group of compounds:
Biological target: Kir3.1/3.4 (Rattus norvegicus, UniProt P48548+P63251)
Construct: expressed in transfected cells
Sequence (P63251 1-501): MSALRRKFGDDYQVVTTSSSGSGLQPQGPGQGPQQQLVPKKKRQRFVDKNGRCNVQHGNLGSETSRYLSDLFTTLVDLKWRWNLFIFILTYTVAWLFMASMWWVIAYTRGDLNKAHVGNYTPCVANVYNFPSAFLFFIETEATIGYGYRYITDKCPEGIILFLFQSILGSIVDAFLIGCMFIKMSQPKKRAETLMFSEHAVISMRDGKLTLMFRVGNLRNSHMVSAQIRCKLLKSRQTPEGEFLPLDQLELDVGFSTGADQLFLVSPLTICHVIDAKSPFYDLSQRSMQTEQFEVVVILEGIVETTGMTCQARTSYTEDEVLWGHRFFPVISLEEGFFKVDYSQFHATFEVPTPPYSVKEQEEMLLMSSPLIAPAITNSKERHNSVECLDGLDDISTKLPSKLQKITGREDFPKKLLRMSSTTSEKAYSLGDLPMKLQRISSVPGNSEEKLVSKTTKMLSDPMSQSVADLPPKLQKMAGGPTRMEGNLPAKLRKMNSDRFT
Sequence (P48548 1-419): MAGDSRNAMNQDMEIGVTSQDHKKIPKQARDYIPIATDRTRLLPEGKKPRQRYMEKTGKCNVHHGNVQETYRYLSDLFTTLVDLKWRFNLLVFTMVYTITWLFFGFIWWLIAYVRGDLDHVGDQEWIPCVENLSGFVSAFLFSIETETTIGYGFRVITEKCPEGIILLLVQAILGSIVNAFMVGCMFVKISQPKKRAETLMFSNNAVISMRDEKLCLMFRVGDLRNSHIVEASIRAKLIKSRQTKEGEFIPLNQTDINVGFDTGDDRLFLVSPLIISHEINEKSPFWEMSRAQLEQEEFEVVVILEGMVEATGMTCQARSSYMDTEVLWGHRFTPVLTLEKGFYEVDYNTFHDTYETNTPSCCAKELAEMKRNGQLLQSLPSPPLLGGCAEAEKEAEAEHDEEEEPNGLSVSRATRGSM
Experiment: Kir3.1/3.4 Electrophysiology Method (manual whole-cell patch clamp)
Type: cell-based
Settings: Electrophysiology Method (TABLE 1)
PARAMETER: IC50

COMPOUND	PARAMETER	RECORDED_VALUE
OCC1CCN(CC2CCN(c3ncnc4scc(-c5ccccc5)c34)CC2)C1 (centres unmarked)	IC50	500 to 3000 nM
CCN(CC)C(=O)C1CCCN(c2nc(N3CCC(CN(C)C4CCN(C)C4)CC3)c3c(-c4ccccc4)csc3n2)C1 (centres unmarked)	IC50	< 500 nM
CN1CCN(c2nc(N3CCC(CNC4CCC4)CC3)c3c(-c4ccccc4)csc3n2)CC1	IC50	< 500 nM
COCC1CCN(c2nc(N3C4CCC3CC(O)C4)nc3scc(-c4ccccc4)c23)CC1 (centres unmarked)	IC50	500 to 3000 nM
CN1CCC(N(C)CC2CCN(c3ncnc4scc(-c5ccccc5)c34)CC2)C1 (centres unmarked)	IC50	< 500 nM
CC(=O)NC1CCN(c2nc(N3CCC(COCCN4CCCC4)CC3)c3c(-c4ccccc4)csc3n2)C1 (centres unmarked)	IC50	< 500 nM
c1ccc(-c2coc3ncnc(N4CCC(COCCN5CCCC5)CC4)c23)cc1	IC50	< 500 nM
c1ccc(-c2csc3nc(N4CCC(COCCN5CCCC5)CC4)ncc23)cc1	IC50	< 500 nM

* * *

molecular target: Kir3.1/3.4 (Rattus norvegicus, UniProt P48548+P63251); construct: expressed in transfected cells; assay: Kir3.1/3.4 Q-patch Method (automated patch clamp, Sophion Q-patch); format: cell-based; settings: HEK293 cells stably-expressing Kir3.1/3.4; current at -120 mV; QPatch-16 or QPatch-48
pIC50: −log10 of the molar value.
Overview of reported pIC50 across a group of compounds:

COMPOUND	pIC50
COc1ccccc1-c1csc2nc(N3CCNC(C(N)=O)C3)nc(N3C4CCC3CC(OC)C4)c12 (stereo not shown)	> 6.30
COc1ccccc1-c1csc2nc(N3CCCC(C(N)=O)C3)nc(N3C4CCC3CC(OC)C4)c12 (stereo not shown)	5.52 to 6.30
NC(=O)C1CCCN(c2nc(N3C4CCC3COC4)nc3scc(-c4ccccc4Cl)c23)C1 (stereo not shown)	5.52 to 6.30
COc1ccccc1-c1csc2nc(N3CCOC(C(N)=O)C3)nc(N3C4CCC3CC(OC)C4)c12 (stereo not shown)	5.52 to 6.30

* * *

Target: Kir3.1/3.4 (Rattus norvegicus, UniProt P48548+P63251)
Construct: expressed in transfected cells
Sequence (P63251 1-501): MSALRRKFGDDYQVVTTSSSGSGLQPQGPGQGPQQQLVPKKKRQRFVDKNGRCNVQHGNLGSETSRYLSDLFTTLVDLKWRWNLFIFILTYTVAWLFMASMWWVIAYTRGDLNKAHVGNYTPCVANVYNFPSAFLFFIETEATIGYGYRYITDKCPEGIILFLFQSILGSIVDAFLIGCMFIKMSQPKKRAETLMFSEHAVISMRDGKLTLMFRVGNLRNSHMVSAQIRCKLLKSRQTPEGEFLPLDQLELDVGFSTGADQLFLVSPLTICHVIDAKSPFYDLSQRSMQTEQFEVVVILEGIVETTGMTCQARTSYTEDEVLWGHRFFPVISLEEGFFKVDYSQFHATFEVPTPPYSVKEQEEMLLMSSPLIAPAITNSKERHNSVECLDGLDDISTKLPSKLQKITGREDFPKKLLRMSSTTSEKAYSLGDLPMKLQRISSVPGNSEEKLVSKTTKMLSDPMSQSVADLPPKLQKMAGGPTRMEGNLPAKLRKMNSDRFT
Sequence (P48548 1-419): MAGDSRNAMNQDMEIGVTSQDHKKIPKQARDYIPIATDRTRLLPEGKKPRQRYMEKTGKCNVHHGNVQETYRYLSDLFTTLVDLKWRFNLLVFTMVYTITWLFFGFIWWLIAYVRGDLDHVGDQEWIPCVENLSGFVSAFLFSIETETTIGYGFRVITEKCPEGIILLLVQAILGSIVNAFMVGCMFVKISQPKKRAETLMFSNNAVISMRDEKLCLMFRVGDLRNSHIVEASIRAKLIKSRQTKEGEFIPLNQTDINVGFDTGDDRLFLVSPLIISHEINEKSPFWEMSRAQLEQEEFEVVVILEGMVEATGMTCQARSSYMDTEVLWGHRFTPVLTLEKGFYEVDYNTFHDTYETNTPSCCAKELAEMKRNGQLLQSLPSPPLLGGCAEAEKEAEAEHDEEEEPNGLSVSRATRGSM
Assay: Kir3.1/3.4 Electrophysiology Method (manual whole-cell patch clamp)
Assay type: cell-based
Conditions: Electrophysiology Method (TABLE 1)

COMPOUND	IC50
CN(CCC1CCCN1C)CC1CCN(c2ncnc3scc(-c4ccccc4)c23)CC1 (stereo not drawn)	< 500 nM
Cc1sc2nc(N3CCC(C(N)=O)C3)nc(N3CCC(CNCCC4CCCCN4C)CC3)c2c1C (stereo not drawn)	< 500 nM
CN1CCC(N(C)CC2CCN(c3nc(N4CCC(C(N)=O)CC4)nc4scc(-c5ccccc5)c34)CC2)C1 (stereo not drawn)	< 500 nM
CC(C)OCC1CCN(c2ncnc3scc(-c4ccccc4)c23)CC1	500 to 3000 nM
C(#Cc1ncnc2scc(-c3ccccc3)c12)COCCN1CCCC1	< 500 nM
CNC(=O)c1sc2ncnc(N3C4CCC3CC(COCCN3CCCC3)C4)c2c1-c1ccccc1 (stereo not drawn)	< 500 nM

* * *

target: Kir3.1/3.4 (Rattus norvegicus, UniProt P48548+P63251); construct: expressed in transfected cells; assay: Kir3.1/3.4 Electrophysiology Method (manual whole-cell patch clamp); assay type: cell-based; conditions: Electrophysiology Method (TABLE 1)
pIC50: −log10 of the molar value.
Overview of reported pIC50 across a group of molecules:

MOLECULE	pIC50
c1ccc(-c2csc3ncnc(N4CCC(CNCCC5CC5)CC4)c23)cc1 [Example 103]	> 6.30
O=C1CN(CCOCC2CCN(c3ncnc4scc(-c5ccccc5)c34)CC2)CCN1 [Example 28]	5.52 to 6.30
c1ccc(-c2csc3ncnc(N4CCC(CNC5CCC5)CC4)c23)cc1 [Example 64]	> 6.30

* * *

Overview of reported IC50 across a group of compounds:
biological target: Kir3.1/3.4 (Rattus norvegicus, UniProt P48548+P63251); construct: expressed in transfected cells; assay: Kir3.1/3.4 Electrophysiology Method (manual whole-cell patch clamp); type: cell-based; conditions: Electrophysiology Method (TABLE 1)
PARAMETER: IC50

COMPOUND	TARGET	RECORDED_VALUE
CN1CCN(c2nc(N3CCC(CN(CCO)CCO)CC3)c3c(-c4ccccc4)csc3n2)CC1 [Example 107]	Kir3.1/3.4 (Rattus norvegicus, UniProt P48548+P63251)	500 to 3000 nM
CC(C)N1CCCC1CCN(C)CC1CCN(c2ncnc3scc(-c4ccccc4)c23)CC1 (centres unmarked) [Example 88]	Kir3.1/3.4 (Rattus norvegicus, UniProt P48548+P63251)	< 500 nM
Fc1ccc(-c2csc3nc(N4CCC(COCCN5CCCC5)CC4)ncc23)cc1 [Example 152]	Kir3.1/3.4 (Rattus norvegicus, UniProt P48548+P63251)	< 500 nM
c1ccc(-c2csc3ncnc(N4CCCC(OCCN5CCCC5)C4)c23)cc1 (centres unmarked) [Example 272]	Kir3.1/3.4 (Rattus norvegicus, UniProt P48548+P63251)	< 500 nM
CN1CCC(N(C)C2CCN(c3ncnc4scc(-c5ccccc5)c34)CC2)C1 (centres unmarked) [Example 231]	Kir3.1/3.4 (Rattus norvegicus, UniProt P48548+P63251)	< 500 nM
Fc1ccc(-c2csc3ncnc(N4CCC(COCCN5CCOCC5)CC4)c23)cc1 [Example 21]	Kir3.1/3.4 (Rattus norvegicus, UniProt P48548+P63251)	< 500 nM
FC(F)CNCC1CCN(c2ncnc3scc(-c4ccccc4)c23)CC1 [Example 52]	Kir3.1/3.4 (Rattus norvegicus, UniProt P48548+P63251)	500 to 3000 nM
c1ccc(-c2csc3ncnc(N4CCC(CNCc5cccs5)CC4)c23)cc1 [Example 69]	Kir3.1/3.4 (Rattus norvegicus, UniProt P48548+P63251)	< 500 nM
O=C(NCCN1CCOCC1)C1CCCN(c2ncnc3scc(-c4ccccc4)c23)C1 (centres unmarked) [Example 285]	Kir3.1/3.4 (Rattus norvegicus, UniProt P48548+P63251)	500 to 3000 nM
CC(C)c1csc2ncnc(N3CCC(CNCCC4CCCN4C)CC3)c12 (centres unmarked) [Example 242]	Kir3.1/3.4 (Rattus norvegicus, UniProt P48548+P63251)	< 500 nM
CC(=O)Nc1sc2ncnc(N3CCC(COCCN4CCCC4)CC3)c2c1-c1ccccc1 [Example 162]	Kir3.1/3.4 (Rattus norvegicus, UniProt P48548+P63251)	< 500 nM
O=C(NCCN1CCCC1)C1CCCN(c2ncnc3scc(-c4ccccc4)c23)C1 (centres unmarked) [Example 268]	Kir3.1/3.4 (Rattus norvegicus, UniProt P48548+P63251)	< 500 nM
CC(C)NC(=O)c1sc2ncnc(N3C4CCC3CC(COCCN3CCCC3)C4)c2c1-c1ccccc1 (centres unmarked) [Example 357]	Kir3.1/3.4 (Rattus norvegicus, UniProt P48548+P63251)	< 500 nM
CC(C)NC(=O)c1sc2ncnc(N3CCC(CN(C)C4CCN(C)C4)CC3)c2c1-c1ccccc1 (centres unmarked) [Example 132]	Kir3.1/3.4 (Rattus norvegicus, UniProt P48548+P63251)	< 500 nM
CN1CCCC1CCNCC1CCN(c2ncnc3scc(-c4ccccc4)c23)CC1 (centres unmarked) [Example 58]	Kir3.1/3.4 (Rattus norvegicus, UniProt P48548+P63251)	< 500 nM
COCCNc1nc(N2CCC(CN(C)C3CCN(C)C3)CC2)c2c(-c3ccccc3)csc2n1 (centres unmarked) [Example 118]	Kir3.1/3.4 (Rattus norvegicus, UniProt P48548+P63251)	< 500 nM
CN(C)CCOCC1CCN(c2nc(N3CCC(C(N)=O)C3)nc3scc(-c4ccccc4)c23)CC1 (centres unmarked) [Example 14]	Kir3.1/3.4 (Rattus norvegicus, UniProt P48548+P63251)	< 500 nM
NC(=O)C1CCN(c2nc(N3C4CCC3CC(CO)C4)c3c(-c4ccccc4)csc3n2)C1 (centres unmarked) [Example 310]	Kir3.1/3.4 (Rattus norvegicus, UniProt P48548+P63251)	500 to 3000 nM
OCCN(CCO)CC1CCN(c2ncnc3scc(-c4ccccc4)c23)CC1 [Example 186]	Kir3.1/3.4 (Rattus norvegicus, UniProt P48548+P63251)	500 to 3000 nM
CC(C)(CNCC1CCN(c2ncnc3scc(-c4ccccc4)c23)CC1)N1CCOCC1 [Example 59]	Kir3.1/3.4 (Rattus norvegicus, UniProt P48548+P63251)	< 500 nM
COCC1CCN(c2nc(N3CCN(C)CC3)nc3scc(-c4ccccc4)c23)CC1 [Example 174]	Kir3.1/3.4 (Rattus norvegicus, UniProt P48548+P63251)	< 500 nM
OC1CCCN(CC2CCN(c3ncnc4scc(-c5ccccc5)c34)CC2)C1 (centres unmarked) [Example 55]	Kir3.1/3.4 (Rattus norvegicus, UniProt P48548+P63251)	500 to 3000 nM
COCC1CCN(c2nc(OC3CC4CC3CN4)nc3scc(-c4ccccc4)c23)CC1 (centres unmarked) [Example 307]	Kir3.1/3.4 (Rattus norvegicus, UniProt P48548+P63251)	< 500 nM
CN(C)C1CCCN(CC2CCN(c3ncnc4scc(-c5ccccc5)c34)CC2)C1 (centres unmarked) [Example 60]	Kir3.1/3.4 (Rattus norvegicus, UniProt P48548+P63251)	< 500 nM
Cc1csc2ncnc(N3CCC(COCCC4CCCN4C)CC3)c12 (centres unmarked) [Example 2]	Kir3.1/3.4 (Rattus norvegicus, UniProt P48548+P63251)	500 to 3000 nM
c1ccc(-c2csc3ncnc(N4CCC(OCCCN5CCCC5)CC4)c23)cc1 [Example 296]	Kir3.1/3.4 (Rattus norvegicus, UniProt P48548+P63251)	< 500 nM

Data provenance is patent US9290511B2.
